Tested on: Streptomyces mobaraensis (enzyme according to the invention)
Assay: Hydrolysis of N-benzyloxycarbonyl-L-amino acids by the enzyme of the invention
Assay type: biochemical
Condition description: 10 mM Z-L-amino acid, pH 7.5, 37° C., 0.1 mM CoCl2
Where Activity for the substrate equals or exceeds 80 Unit/mg, the correct label is met; where it does not, the label is not met.

# Compound, Label class
data = [
    ("CC(C)C[C@H](NC(=O)OCc1ccccc1)C(=O)O", "met"),
    ("O=C(NC(CSCc1ccccc1)C(=O)O)OCc1ccccc1 (stereo not drawn)", "met"),
    ("O=C(O)CC[C@H](NC(=O)OCc1ccccc1)C(=O)O", "not met"),
    ("CSCCC(NC(=O)OCc1ccccc1)C(=O)O (stereo not drawn)", "met"),
    ("CCC(C)C(NC(=O)OCc1ccccc1)C(=O)O (stereo not drawn)", "not met"),
    ("O=C(NC(Cc1cnc[nH]1)C(=O)O)OCc1ccccc1 (stereo not drawn)", "not met"),
]

###

Each item that follows carries a reported Relative activity.
Test system: purified enzyme (capsaicin hydrolysis activity)
Assay: Effects of various reagents upon enzymatic activity (capsaicin hydrolysis)
Assay type: biochemical, Streptomyces mobaraensis IFO 13819
Condition description: reagent 1 mM; 0.13 mM capsaicin/50 mM tris-HCl (pH 7.5); control = 100
Quantity: Relative activity (%)

# Smiles str, Endpoint value
rows = [
    ("O[C@@H](CS)[C@@H](O)CS", 79.8),
    ("O=S(=O)([O-])[O-].[Fe+2]", 88.8),
    ("O=C(O)c1cc[c]([Hg][Cl])cc1", 96.6),
    ("[Ca+2].[Cl-].[Cl-]", 101.6),
]

###

Each item that follows carries a reported Relative activity.
System: purified enzyme (capsaicin hydrolysis activity)
Assay: Effects of various reagents upon enzymatic activity (capsaicin hydrolysis)
Type: biochemical, Streptomyces mobaraensis IFO 13819
Condition description: reagent 1 mM; 0.13 mM capsaicin/50 mM tris-HCl (pH 7.5); control = 100

# Molecule, Relative activity, %
measured = [
    ("O=[N+]([O-])[O-].[Ag+]", 100.1),
    ("O=S(=O)([O-])[O-].[Mg+2]", 96.0),
    ("O=S(=O)([O-])[O-].[Cu+2]", 96.9),
    ("N[C@@H](CS)C(=O)O", 101.2),
    ("NC(=O)CI [Idoacetoamide]", 86.5),
    ("N[C@@H](CCC(=O)N[C@@H](CS)C(=O)NCC(=O)O)C(=O)O", 99.8),
    ("[Cl-].[Cl-].[Zn+2]", 95.5),
]
